Assay procedure: gradient 5% acetonitrile 3 min, to 50% in 2 min, to 85% in 15 min, held 3 min, 100 µL/min
Condition label: column: Zorbax Extend-C18 2.1 x 50 mm; eluents: water / acetonitrile, 0.1% formic acid
Assay metric: RP-LC retention time (s)
Note: unit s is implicit; provide only the numeric part.

Previously resolved entries follow.
Compound	RP-LC retention time / s
COc1ccc(-c2cc(N3CCC(NC(=O)c4cccc(C#N)c4)C3)n[nH]2)cc1 (stereo unspecified)	692
CC(C)NC(=O)c1ccc(OCC2CCN(C(=O)CC(C)(C)C)CC2)cc1	875
NS(=O)(=O)c1ccc(CCNC(=O)C(=O)Nc2ccc(Cl)cn2)cc1	695
Cc1ccc(-n2nc(C)c(S(=O)(=O)N3CCC(C(=O)N4CCN(C)CC4)CC3)c2C)cc1	629
COCc1cnc2c(c1SCc1ccc(C)cc1)c(=O)n(C)c(=O)n2C	1060
COc1ccc(-c2ncc3c(n2)CCN(C(=O)c2cccc(Cl)c2)C3)cc1	975
COc1cccc(-c2nc(-c3ccc4oc(C)nc4c3)no2)c1	1110
O=C(Nc1ccc(-c2nnc3n2CCCC3)cc1)C1CCCC1	648
CCOC(=O)c1[nH]c2ccc(OC)cc2c1NC(=O)CN(C)C	575
Cc1cccc(OCc2nc(-c3ccc4c(c3)ncn4CCN3CCCC3)no2)c1	673

Per the records, this compound ( Cc1cnc(CC2CCN(S(=O)(=O)Cc3ccccc3)C2)n1C(C)C (stereo unspecified) ) has RP-LC retention time equal to 663

Origin of values: the METLIN SMRT retention time set (Domingo-Almenara et al. 2019)
